# MEASUREMENT_TARGET: Beta-adrenoceptor (Rattus norvegicus)
# Construct: from tissue; host or cells: heart in situ of anesthetized male Wistar rats (in vivo, i.v. dosing)
# Sequence (P18090 whole entry): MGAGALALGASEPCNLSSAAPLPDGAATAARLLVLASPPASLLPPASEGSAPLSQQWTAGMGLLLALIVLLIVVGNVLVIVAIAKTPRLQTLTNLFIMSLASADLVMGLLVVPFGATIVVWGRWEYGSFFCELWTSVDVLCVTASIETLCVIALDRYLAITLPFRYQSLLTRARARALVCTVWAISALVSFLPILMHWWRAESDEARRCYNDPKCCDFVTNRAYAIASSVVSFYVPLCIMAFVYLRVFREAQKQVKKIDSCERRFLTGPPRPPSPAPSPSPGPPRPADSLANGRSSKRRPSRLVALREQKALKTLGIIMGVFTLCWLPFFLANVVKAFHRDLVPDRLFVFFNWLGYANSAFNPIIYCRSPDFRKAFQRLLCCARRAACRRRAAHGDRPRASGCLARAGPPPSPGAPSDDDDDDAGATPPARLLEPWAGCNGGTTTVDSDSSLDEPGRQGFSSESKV
# ASSAY_EXPLANATION: Beta-adrenoceptor blocking effects: blockade of positive chronotropic response to isoproterenol
# Type: in vivo, male Wistar rats
# PROTOCOL_CONDITIONS: 50% blockade of chronotropic response to isoproterenol 0.1 μg/kg iv, reserpinized, vagotomized rats, cumulative dose, read-out: Beta Blocking ED50
ED50 values by entry
Please reply with the bare figure in mg/kg and do not write the unit itself.

Example molecules with recorded ED50:
MOLECULE | DISPLAY_UNIT | RESULT_VALUE
COC(=O)C1=C(C)NC(C)=C(C(=O)OC)C1c1cc([N+](=O)[O-])ccc1OCCCCNC[C@@H](O)COc1ccccc1 | mg/kg | 3.53
COC(=O)C1=C(C)NC(C)=C(C(=O)OC)C1c1cc([N+](=O)[O-])ccc1OCCCCCNCC(O)COc1ccccc1 (stereo not shown) | mg/kg | 2.58
COC(=O)C1=C(C)NC(C)=C(C(=O)OC)C1c1cc([N+](=O)[O-])ccc1OCCCCNCC(O)COc1ccc(NC(C)=O)cc1 (stereo not shown) | mg/kg | 0.5
COC(=O)C1=C(C)NC(C)=C(C(=O)OC)C1c1ccccc1OCCCCNCC(O)COc1ccccc1 (stereo not shown) | mg/kg | 0.9
COC(=O)C1=C(C)NC(C)=C(C(=O)OC)C1c1cc([N+](=O)[O-])ccc1OCCCCNCC(O)COc1ccccc1 (stereo not shown) | mg/kg | 0.7
COC(=O)C1=C(C)NC(C)=C(C(=O)OC)C1c1cc(S(C)(=O)=O)ccc1OCCCCNCC(O)COc1ccccc1 (stereo not shown) | mg/kg | 0.03

Alright, here's another molecule for you.
Supply reported ED50 belonging to this molecule: CCOC(=O)C1=C(C)NC(C)=C(C(=O)OC)C1c1cc([N+](=O)[O-])ccc1OCCCCNCC(O)COc1ccccc1 (stereo not shown)
0.73

These measurements were taken from patent US4727082A.
